From: ChEMBL document CHEMBL4680371

Reported pKi values follow for various compounds
- Target system: Furin (Homo sapiens, UniProt P09958)
- Sequence (P09958 whole entry): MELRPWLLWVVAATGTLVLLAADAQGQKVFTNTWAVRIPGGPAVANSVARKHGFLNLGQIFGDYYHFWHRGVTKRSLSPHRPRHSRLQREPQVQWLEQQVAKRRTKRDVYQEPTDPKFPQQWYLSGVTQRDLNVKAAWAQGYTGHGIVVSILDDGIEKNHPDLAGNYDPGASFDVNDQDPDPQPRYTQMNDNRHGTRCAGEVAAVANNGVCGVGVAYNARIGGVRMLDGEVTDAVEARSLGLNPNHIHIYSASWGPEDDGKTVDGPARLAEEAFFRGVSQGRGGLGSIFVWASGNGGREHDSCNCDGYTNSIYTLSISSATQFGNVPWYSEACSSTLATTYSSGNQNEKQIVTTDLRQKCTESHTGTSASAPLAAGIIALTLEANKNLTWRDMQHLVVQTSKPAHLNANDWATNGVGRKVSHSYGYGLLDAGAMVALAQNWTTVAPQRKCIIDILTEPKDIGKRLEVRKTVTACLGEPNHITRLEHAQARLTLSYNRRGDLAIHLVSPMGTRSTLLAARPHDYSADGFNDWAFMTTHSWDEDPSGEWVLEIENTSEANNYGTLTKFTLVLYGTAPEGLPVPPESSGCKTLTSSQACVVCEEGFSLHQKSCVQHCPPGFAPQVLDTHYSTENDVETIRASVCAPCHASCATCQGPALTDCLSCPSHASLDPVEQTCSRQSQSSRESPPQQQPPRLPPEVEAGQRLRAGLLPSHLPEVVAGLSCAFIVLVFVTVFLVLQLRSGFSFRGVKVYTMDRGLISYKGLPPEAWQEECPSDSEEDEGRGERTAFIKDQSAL
- Protocol notes: Inhibition of recombinant soluble human furin using pyroGlu-Arg-Thr-Lys-Arg-methyl-coumaryl-7-amide as substrate measured after 1 hr
pKi: −log10 of the molar value.

Smiles	pKi
CC(=O)N[C@@H](CCCNC(=N)N)C(=O)N[C@@H](C)C(=O)N[C@H](C(=O)N[C@@H](CCCNC(=N)N)C(=O)N[C@@H](CCCNC(=N)N)C(=O)N[C@@H](CCCCN)C(=O)N[C@@H](CCCCN)C(=O)N[C@@H](CCCNC(=N)N)C(=O)N[C@H](C(N)=O)[C@@H](C)O)C(C)C	7.68
CC(=O)N[C@@H](CCCNC(=N)N)C(=O)N[C@@H](C)C(=O)N[C@@H](CCCNC(=N)N)C(=O)N[C@@H](Cc1c[nH]c2ccccc12)C(=O)N[C@@H](CCCNC(=N)N)C(=O)N[C@@H](CCCCN)C(=O)N[C@@H](CCCCN)C(=O)N[C@@H](CCCNC(=N)N)C(=O)N[C@H](C(N)=O)[C@@H](C)O	7.33
CC(=O)N[C@@H](CCCNC(=N)N)C(=O)N[C@@H](C)C(=O)N[C@@H](CC(=O)O)C(=O)N[C@@H](CCCNC(=N)N)C(=O)N[C@@H](CCCNC(=N)N)C(=O)N[C@@H](CCCCN)C(=O)N[C@@H](CCCCN)C(=O)N[C@@H](CCCNC(=N)N)C(=O)N[C@H](C(N)=O)[C@@H](C)O	6.57
